# Tested on: SN12C renal
# ASSAY NOTES: NCI-60 one-dose screen, 48 h (100 = growth as untreated, 0 = no growth, -100 = all killed)
# DETAILS: 10 µM
This is part of a sample that, as a whole, favours compounds with a hit. Of some 83,000 tested, about 20% had one in any assay. Calls of active or inactive are those of the source. Rule for the calls: active = growth percent below 10; inactive = the rest.
READOUT NAME: growth

Nc1ccc(N=Nc2ccc(O)cc2)c(N)n1    72.8% (inactive)
COCCOC(=O)c1ccc(C(C)C)cc1    103% (inactive)
CC(=O)c1ccc(C(C)(C)C)cc1    97% (inactive)
O=C(/C=C\c1ccc(O)cc1)c1ccccc1    89% (inactive)
Cc1c(O)cccc1O    88% (inactive)
O=C1Cc2ccccc2C(=O)O1    101% (inactive)
CCC(O)CC(CC)CO (centres undefined)    111% (inactive)
N#CC1(Nc2ccc3c4c(cccc24)CC3)CCCCC1    92.7% (inactive)
CCOC(=O)c1[nH]c(C)c(C(C)=O)c1C    90.8% (inactive)
O=c1[nH]c(O)c(/C=C2/C=Nc3ccccc32)[nH]1    98.3% (inactive)

Hey, SN12C renal data for Cc1c(O)cnc2nn(-c3ccccc3)c(=N)n12 : growth came out at 97.7% (inactive)

Hey, SN12C renal data for CC1C(=O)c2ccccc2CC1C(=O)O (centres undefined) : growth came out at 112% (inactive)

Hey, SN12C renal data for COC(=O)c1[nH]c(=O)c(C#N)c(C(=O)OC)c1C(=O)c1ccccc1 : growth came out at 95% (inactive)

Hey, SN12C renal data for COC(=O)/C=C/C(=O)NC(N)=O : growth came out at 101% (inactive)

Hey, SN12C renal data for CC1(C)N=C(N)N=C(N)N1c1ccc(Cl)cc1 : growth came out at 41.4% (inactive)

* * *

# Test system: A498 renal
# ASSAY NOTES: NCI-60 one-dose screen, 48 h
# DETAILS: 10 µM
About 83,000 compounds went through this panel and 20% of them were active in at least one assay; those are over-represented in the sample as a whole. Calls of active or inactive are those of the source. Rule for the calls: active = growth percent below 10; inactive = the rest.
Hi there, use one of these labels in your reply, thanks! 1 (yes) for active, 0 (no) for inactive

# count of solved cases: 6
COc1ccc(Oc2c(I)cc(CC(NC(C)=O)C(=O)O)cc2I)cc1 (configuration not stated)    0 (no)
CCOC(=O)CSc1c([N+](=O)[O-])ncn1C    0 (no)
C#Cc1cccc(NC(=O)c2ccc(Cl)cc2Cl)c1    0 (no)
COc1ccc(C2OC(N)=C(O)C2=O)cc1OC (configuration not stated)    0 (no)
CCCCCCCCCCC(C)Br (configuration not stated)    0 (no)
CC(C)=C(NC(=O)c1ccccc1)C(=O)O    0 (no)

Field: outcome | Entry: S=C1NCc2cncnc2N1 0 (no)

Field: outcome | Entry: Cc1ccc(C)n1-c1ccsc1C(=O)NNC(=O)C(Cl)Cl 0 (no)

Field: outcome | Entry: CCCC(=O)Nc1ccc2c(c1)CN1C(=O)c3ccccc3C1=N2 0 (no)

* * *

# Tested on: SK-OV-3 ovarian
# ASSAY NOTES: NCI-60 one-dose screen, 48 h (100 = growth as untreated, 0 = no growth, -100 = all killed)
# DETAILS: 10 µM
The panel holds about 83,000 compounds, 20% with a hit somewhere; the sample as a whole holds those more often. Activity calls are given as the source filed them. Rule for the calls: active = growth percent below 10; inactive = the rest.
READOUT NAME: growth

Examples with answers:
Cc1cc(=O)n(-c2ccc(F)cc2)[nH]1    95.3% (inactive)
Nc1ccc(C(=O)c2ccc(N)c(Br)c2)cc1Br    8.33% (active)
CCOc1ccc(/C=N/N=C(N)N)cc1OCC    106% (inactive)
COc1cc(C(N)=O)cc(OC)c1OC    111% (inactive)
O=C1C[C@H](c2ccccc2)[C@H](c2ccccc2)C1    102% (inactive)
N#C/C(=C\c1cc(O)c(O)c(O)c1)C(N)=O    110% (inactive)
CCOC(=O)C1=C(Nc2ccc(Br)cc2)C(=O)N(CC)C1    102% (inactive)
Cc1ccc(C(O)C2CC2)cc1 (stereo unspecified)    106% (inactive)

According to the records, this compound COc1cc(C2c3cc4c(cc3C3OC(=O)C2C3CO)OCO4)cc(OC)c1OC (stereo unspecified) displays growth of -7.31% (active)

According to the records, this compound c1ccc2c(N3CCCCC3)ncnc2c1 displays growth of 94% (inactive)

According to the records, this compound CCOC(=O)C(CCC(C)C)C(=O)OCC displays growth of 106% (inactive)

According to the records, this compound O=c1cc2oc3cc(O)c(O)cc3c(-c3ccccc3O)c-2cc1O displays growth of 57.4% (inactive)

According to the records, this compound O=C(O)C(O)c1ccccc1 (stereo unspecified) displays growth of 109% (inactive)

According to the records, this compound CC(=Nc1ccccc1)C1=C(O)C(Cc2cccc(F)c2)NC1=O (stereo unspecified) displays growth of 4.34% (active)

According to the records, this compound COS(=O)(=O)c1ccc(Br)cc1 displays growth of 104% (inactive)

According to the records, this compound C=CC(O)CCC (stereo unspecified) displays growth of 108% (inactive)

According to the records, this compound Cc1cc(N)ccc1-c1ccc(N)cc1C displays growth of 96.4% (inactive)

According to the records, this compound Cc1cc(C(O)(c2ccc(Nc3ccccc3)cc2)c2ccc(Nc3ccc(S(=O)(=O)O)cc3)cc2)ccc1N (stereo unspecified) displays growth of 31.3% (inactive)

According to the records, this compound COc1ccc(-c2cc3c(nn2)-c2ccccc2C3=O)cc1 displays growth of 102% (inactive)

According to the records, this compound [O-][N+](=Nc1cccc(Cl)c1)c1cccc(Cl)c1 displays growth of 110% (inactive)

According to the records, this compound Nc1nc(N)c(N=Nc2ccc(C(=O)O)cc2)c(N)n1 displays growth of 111% (inactive)

According to the records, this compound O=C(O)/C=C/c1ccc2c(c1)CCC2 displays growth of 99.6% (inactive)

According to the records, this compound COc1cc2cc(OC(C)=O)c3cc4c(cc3c2c(OC)c1OC)OCO4 displays growth of 103% (inactive)

According to the records, this compound O=C(O)[C@@H]1[C@H]2C[C@H]3c4[nH]c5ccccc5c4CCN3C[C@@H]2CC[C@@H]1O displays growth of 115% (inactive)

According to the records, this compound COc1ccc(-c2cc(-c3cc(-c4ccc(OC)cc4)nc(N)n3)nc(N)n2)cc1 displays growth of 106% (inactive)

According to the records, this compound c1ncc2[nH]cnc2n1 displays growth of 90.8% (inactive)

* * *

# System: LOX IMVI melanoma
# ASSAY NOTES: NCI-60 one-dose screen, 48 h (100 = growth as untreated, 0 = no growth, -100 = all killed)
# DETAILS: 10 µM
The panel holds about 83,000 compounds, 20% with a hit somewhere; the sample as a whole holds those more often.
READOUT NAME: growth (%)
# number only, unit % dropped from output

Examples with answers:
COC(=O)c1cccnc1    95.6
COc1cc2cc(OC(C)=O)c3cc4c(cc3c2c(OC)c1OC)OCO4    94.9
CCS(=O)(=O)CCCl    81.7
COc1ccc(OC)c(/C=C2\CCc3ccccc3C2=O)c1    35.6
COCCOCCCl    98.5
O=C(/C=C\c1ccc(O)cc1)c1ccccc1    94.4
CSC[C@H](NC(=O)COc1cccc2cnccc12)C(=O)NC(Cc1ccccc1)C(O)C(=O)N1CSC[C@H]1C(=O)NC(C)(C)C (stereo partly drawn)    102
O=C1OC(c2ccc(F)cc2)CC1CN1CCOCC1 (stereo not drawn)    89.2
COC(=O)c1ccccc1N(C)C    94.5
CCOC(=O)C1OC1c1ccccc1 (stereo not drawn)    101

According to the records, this molecule CCOC(=O)c1coc(C(=O)OCC)c1C(=O)OCC displays growth of 108

According to the records, this molecule Cc1c(O)cccc1O displays growth of 106

According to the records, this molecule O=[N+]([O-])c1ccc(O)c(S(=O)(=O)O)c1 displays growth of 98.2

* * *

Consider the following compounds and their measured growth readings.
# System: MDA-MB-435 melanoma
# ASSAY NOTES: NCI-60 one-dose screen, 48 h (100 = growth as untreated, 0 = no growth, -100 = all killed)
# DETAILS: 10 µM
The panel holds about 83,000 compounds, 20% with a hit somewhere; the sample as a whole holds those more often.
# number only, unit % dropped from output

NCCCN    109

Kindly review the next compound as well.
Hey, MDA-MB-435 melanoma data for Cc1cc(C)cc(NCCC#N)c1 : growth came out at 111

* * *

# Tested on: KM12 colon
# ASSAY NOTES: NCI-60 one-dose screen, 48 h (100 = growth as untreated, 0 = no growth, -100 = all killed)
# DETAILS: 10 µM
Compounds without any hit were thinned out: in the full panel of roughly 83,000, 20% have a hit.
Consider the following molecules and their measured growth readings.
# number only, unit % dropped from output

Examples with answers:
COc1cccc(/C=N/NC(=S)NC2CC3CCC2C3)c1O (stereo not drawn)    69.1
CC1(O)CCCCC1O (stereo not drawn)    115
O=C(NCc1ccco1)Nc1c(Cl)cc(Cl)cc1Cl    104

Hey, KM12 colon data for c1csc(-c2cc(-c3cc(-c4cccs4)[nH]n3)n[nH]2)c1 : growth came out at 105

Hey, KM12 colon data for CCCCCCCCCCC(C)Br (stereo not drawn) : growth came out at 107

Hey, KM12 colon data for Cc1c(C(=O)O)c(=O)n(-c2ccccc2)n1C : growth came out at 120
